Some binders, each annotated with its measured binding signal.
TARGET_OR_SYSTEM: T1, UNK ZnF1-3 (human, UniProt Q9C0B0 31-174)
T1 sequence: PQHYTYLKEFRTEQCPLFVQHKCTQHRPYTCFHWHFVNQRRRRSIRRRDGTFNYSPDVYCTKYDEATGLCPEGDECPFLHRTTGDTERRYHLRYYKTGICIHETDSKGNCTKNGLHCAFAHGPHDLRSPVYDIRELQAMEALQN
EXPERIMENT: nsRBNS (natural sequence RNA bind-n-seq); RBNS binding buffer (assumed for nsRBNS): 25 mM Tris pH 7.5, 150 mM KCl, 3 mM MgCl2, 0.01% Triton X-100, 500 ug/ml BSA, 20 U/ml SUPERase-In, 4 C; UNK is unkempt and MSI1 is Musashi-1; names of the RNAs are library labels; protein concentration not given here; high values mean tight binding
In all, about 24,000 sequences were measured (“enrichment r”: median about 0.99, highest 2% from about 3.7 on). The sample holds the highest values, similar sequences and a random draw of the others, so the mix is not that of the screen.
Entry rule: numbers only, all in enrichment R.

Consider the following illustrative entries.
chr1:38489269:38489270:+_ENSG00000183520_ENST00000537711|hu_hu|FALSE|FALSE (ssRNA) RNA: GGGAGUUCUACAGUCCGACGAUCUUUGAAGUUACUAGAAAACGACAACAGAUUUUUGAUACAGAAUGACAAGGCUUAUCUAUAACACGUCAACGUUUUCGACGACUCUGAAAUUUAUAAAUAGCUGGGGAGUUCACCGUUUCUCAACAGAGGAUUGAGCAUCA :: 1.2
chr11:88707168:88707169:-_ENSMUSG00000018428_ENSMUST00000018572|mus_mus|FALSE|FALSE (ssRNA) RNA: GGGAGUUCUACAGUCCGACGAUCAAGGGGAAGAGCGAACGCAACUGGAUUGCCAUCUUGGAGUCAGUCGAUGUGAAGUAGCUACACCUGCUCCUGGGCGACCGUCUAGGCACUCAAUCCUCCCGCCACCGCCCCCUGGCCCCCCAACAGAGGAUUGAGCAUCA :: 1.08

Let's switch to this binder now.
(Q) // Input: chr18:33597908:33597909:-_ENSMUSG00000042834_ENSMUST00000171533|mus_mus|FALSE|FALSE (ssRNA) RNA: GGGAGUUCUACAGUCCGACGAUCUACAUCAAAAGAGUACAUGGGUAAAAUAUAGAUAUACAGACAAUUGAUGAACAUAAACUACUAGGCUUGUUACAUCUAAAUGAAGAAAAAAAAAAACCGUGGGGGGGACUCUCAGCCUCUCAACAGAGGAUUGAGCAUCA . Output its binding signal only.
(A) 7.83
